Below is a list of entries, each paired with its recorded MIC value.
System: USA100 HA-MRSA
assay-protocol: MIC against clinical isolates of MRSA
Format: cell-based
experimental-parameters: Staphylococcus aureus, clinical isolate, USA100; read-out: MIC USA100 HA-MRSA
The reply should be a number in µg/mL, with the unit left off.

Here's what some known entries look like.
COc1cc(-c2ccncc2)cc(C(C)C#Cc2c(C)nc(N)nc2N)c1 (stereo not drawn) : 0.045
CCc1nc(N)nc(N)c1C#CCc1cc(OC)cc(-c2ccncc2)c1 : 0.045
CCc1nc(N)nc(N)c1C#CCc1cc(-c2ccncc2)ccc1OC : 0.08
CCc1nc(N)nc(N)c1C#CCc1cccc(-c2ccncc2)c1 : 0.045
CCc1nc(N)nc(N)c1C#CCc1cccc(-c2cccnc2)c1 : 0.36

Pending molecule:
Entry CCc1nc(N)nc(N)c1C#CC(C)c1cc(OC)cc(-c2ccncc2)c1 (stereo not drawn) — recorded MIC = 0.09

====

Tested on: Streptococcus pyogenes
assay-protocol: MIC, broth microdilution with Alamar Blue
Assay type: cell-based
recorded-metric: MIC S. pyogenes (µg/mL)
Record the value in µg/mL, omitting the unit from your answer.

COc1cc(-c2cc(C)cc(C)c2)cc(C(C)C#Cc2c(C)nc(N)nc2N)c1 (stereo not shown) : 0.097
CCc1nc(N)nc(N)c1C#CCc1cccc(-c2ccccc2)c1 : 0.66
COc1cc(-c2ccc(C)cc2)cc(C(C)C#Cc2c(C)nc(N)nc2N)c1 (racemic) : 0.024

The measured MIC S. pyogenes associated with CCc1nc(N)nc(N)c1C#CCc1cc(OC)cc(-c2ccccc2)c1 reads 0.18

====

Tested on: Streptococcus pyogenes
assay-protocol: MIC, broth microdilution with Alamar Blue
Type: cell-based
experimental-parameters: Streptococcus pyogenes, value in parentheses; read-out: MIC S. pyogenes
recorded-metric: log10(MIC) (log10 of the value in µM)
// units: µM (pre-log); metric: MIC; scale: log10

Record excerpt, results attached:
CCc1nc(N)nc(N)c1C#CCc1cccc(-c2cccnc2)c1 : -0.60
CCc1nc(N)nc(N)c1C#CCc1cc(-c2ccccc2)ccc1OC : -1.80
CCc1nc(N)nc(N)c1C#CCc1cc(-c2ccncc2)ccc1OC : -0.90
COc1cc(-c2cc(C)cc(C)c2)cc(C(C)C#Cc2c(C)nc(N)nc2N)c1 (stereo not shown) : -0.60
CCc1nc(N)nc(N)c1C#CC(C)c1cc(-c2ccccc2)ccc1OC (stereo not shown) : 0.30
COc1ccc(-c2ccccc2)cc1C(C)C#Cc1c(C)nc(N)nc1N (stereo not shown) : -0.30
COc1cc(C(C)C#Cc2c(C)nc(N)nc2N)cc(N2CCOCC2)c1 (stereo not shown) : 0.90
CCc1nc(N)nc(N)c1C#CCc1cccc(-c2ccncc2)c1 : -0.90
COc1cc(-c2ccncc2)cc(C(C)C#Cc2c(C)nc(N)nc2N)c1 (stereo not shown) : -0.90
CCc1nc(N)nc(N)c1C#CCc1cccc(-c2cncnc2)c1 : -0.30

Record CCc1nc(N)nc(N)c1C#CC(C)c1cc(OC)cc(-c2ccncc2)c1 (stereo not shown) , field log10(MIC): -1.49

The reported log10(MIC) of the compound CCc1nc(N)nc(N)c1C#CCc1cc(OC)cc(-c2ccncc2)c1 was -0.90

Field log10(MIC) (entry COc1cc(Cc2cnc(N)nc2N)cc(OC)c1OC [TMP, trimethoprim, reference compound] ) reads 0.30

These measurements were taken from paper PMC3274548.
